Molecular target: T1, full-length human Regnase-1 with a FLAG tag on the N-terminal side and a biotin ligase BirA recognition … (human, UniProt Q5D1E8 1-599, biotinylated at the BirA recognition sequence when required)
T1 sequence: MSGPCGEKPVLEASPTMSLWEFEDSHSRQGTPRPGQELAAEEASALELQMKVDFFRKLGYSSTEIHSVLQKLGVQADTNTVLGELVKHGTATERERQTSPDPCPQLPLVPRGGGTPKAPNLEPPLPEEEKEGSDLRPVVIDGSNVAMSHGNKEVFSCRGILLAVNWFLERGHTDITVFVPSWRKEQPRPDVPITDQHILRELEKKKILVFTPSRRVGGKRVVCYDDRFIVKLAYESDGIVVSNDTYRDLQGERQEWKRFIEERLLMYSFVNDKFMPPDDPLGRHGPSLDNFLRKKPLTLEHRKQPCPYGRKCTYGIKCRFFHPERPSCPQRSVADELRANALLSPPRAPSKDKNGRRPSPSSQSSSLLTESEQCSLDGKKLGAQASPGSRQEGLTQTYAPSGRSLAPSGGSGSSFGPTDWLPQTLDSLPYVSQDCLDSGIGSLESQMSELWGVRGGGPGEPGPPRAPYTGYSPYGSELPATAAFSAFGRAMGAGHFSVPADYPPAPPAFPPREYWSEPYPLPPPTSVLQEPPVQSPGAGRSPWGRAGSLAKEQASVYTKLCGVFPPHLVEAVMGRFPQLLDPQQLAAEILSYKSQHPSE
Test: cell-based or functional assay
Positions of bridges follow the written chain, without caps; N, C: chain ends. Non-standard residues stand in square brackets, D forms with d. *: point of attachment. NMeA = CN[C@@H](C)C(=O)O; Pyrrolidide = C1CCN(*)C1; dNMeA = CN[C@H](C)C(=O)O
quantity_kind: 50% inhibition concentration, Regnase-1 phosphorylation by IKKβ (AlphaScreen) (µM)

binder	quantity_unit	value
[dNMeA]KHASAWYRIWD-Pyrrolidide (lactam N-12) [PP3]	µM	4.6
XTSWYKVNWGQD (HELM PEPTIDE1{[meA].T.S.W.Y.K.V.N.W.G.Q.D.[C1CCN([*:1])C1]}$PEPTIDE1,PEPTIDE1,1:R1-12:R3$$$V2.0; SMILES CC(C)[C@@H]1NC(=O)[C@H](CCCCN)NC(=O)[C@H](Cc2ccc(O)cc2)NC(=O)[C@H](Cc2c[nH]c3ccccc23)NC(=O)[C@H](CO)NC(=O)[C@H]([C@@H](C)O)NC(=O)[C@H](C)N(C)C(=O)C[C@@H](C(=O)N2CCCC2)NC(=O)[C@H](CCC(N)=O)NC(=O)CNC(=O)[C@H](Cc2c[nH]c3ccccc23)NC(=O)[C@H](CC(N)=O)NC1=O) [PP1]	µM	28.1
XHSNAWYNIWD (HELM PEPTIDE1{[meA].H.S.N.A.W.Y.N.I.W.D.[C1CCN([*:1])C1]}$PEPTIDE1,PEPTIDE1,1:R1-11:R3$$$V2.0; SMILES CC[C@H](C)[C@@H]1NC(=O)[C@H](CC(N)=O)NC(=O)[C@H](Cc2ccc(O)cc2)NC(=O)[C@H](Cc2c[nH]c3ccccc23)NC(=O)[C@H](C)NC(=O)[C@H](CC(N)=O)NC(=O)[C@H](CO)NC(=O)[C@H](Cc2c[nH]cn2)NC(=O)[C@H](C)N(C)C(=O)C[C@@H](C(=O)N2CCCC2)NC(=O)[C@H](Cc2c[nH]c3ccccc23)NC1=O) [PP5]	µM	23.6
[NMeA]YIWDFFGDLD-Pyrrolidide (lactam N-11) [PP4]	µM	19.5
XPNSSWFKIWD (HELM PEPTIDE1{[C[C@H](C(=O)[*:2])N(C)[*:1]].P.N.S.S.W.F.K.I.W.D.[C1CCN([*:1])C1]}$PEPTIDE1,PEPTIDE1,1:R1-11:R3$$$V2.0; SMILES CC[C@H](C)[C@@H]1NC(=O)[C@H](CCCCN)NC(=O)[C@H](Cc2ccccc2)NC(=O)[C@H](Cc2c[nH]c3ccccc23)NC(=O)[C@H](CO)NC(=O)[C@H](CO)NC(=O)[C@H](CC(N)=O)NC(=O)[C@@H]2CCCN2C(=O)[C@@H](C)N(C)C(=O)C[C@@H](C(=O)N2CCCC2)NC(=O)[C@H](Cc2c[nH]c3ccccc23)NC1=O) [PP6]	µM	17
XGYANSWYNIWD (HELM PEPTIDE1{[meA].G.Y.A.N.S.W.Y.N.I.W.D.[C1CCN([*:1])C1]}$PEPTIDE1,PEPTIDE1,1:R1-12:R3$$$V2.0; SMILES CC[C@H](C)[C@@H]1NC(=O)[C@H](CC(N)=O)NC(=O)[C@H](Cc2ccc(O)cc2)NC(=O)[C@H](Cc2c[nH]c3ccccc23)NC(=O)[C@H](CO)NC(=O)[C@H](CC(N)=O)NC(=O)[C@H](C)NC(=O)[C@H](Cc2ccc(O)cc2)NC(=O)CNC(=O)[C@H](C)N(C)C(=O)C[C@@H](C(=O)N2CCCC2)NC(=O)[C@H](Cc2c[nH]c3ccccc23)NC1=O) [PP2]	µM	16.6
